Molecular target: Type-1 angiotensin II receptor B (Rattus norvegicus, UniProt P29089)
Sequence (P29089 whole entry): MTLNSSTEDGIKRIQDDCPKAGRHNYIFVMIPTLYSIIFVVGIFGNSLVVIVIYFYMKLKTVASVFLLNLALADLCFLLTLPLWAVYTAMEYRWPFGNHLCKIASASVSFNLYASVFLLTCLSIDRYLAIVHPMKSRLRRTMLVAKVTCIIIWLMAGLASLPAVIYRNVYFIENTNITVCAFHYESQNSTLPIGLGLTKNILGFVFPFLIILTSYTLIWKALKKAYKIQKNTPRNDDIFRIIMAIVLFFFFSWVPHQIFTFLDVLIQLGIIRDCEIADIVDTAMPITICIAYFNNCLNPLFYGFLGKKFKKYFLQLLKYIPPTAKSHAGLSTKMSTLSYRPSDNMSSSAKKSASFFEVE
Experiment: Compound was evaluated for binding affinity against angiotensin II receptor, type 1 in rat liver
Each record here notes measured pKi.
In plain terms, pKi is the concentration in mol/L turned into minus its base-10 logarithm.

// known answers, use as guide
> print(dat)
                         compound.structure  readout.value
1  CCCCN(Cc1ccc(-c2ccccc2-c2nn[nH]n2)cc1)c1nc(C)ncc1C(=O)O           7.82
2  CCCCN(Cc1ccc(-c2ccccc2-c2nnn[nH]2)cc1)c1ncncc1C(=O)O           8.50
3  CCCN(Cc1ccc(-c2ccccc2-c2nnn[nH]2)cc1)c1ncccc1C(=O)O           9.12
4  CCCN(Cc1ccc(-c2ccccc2-c2nn[nH]n2)cc1)c1nc(C)ncc1C(=O)O           8.56

// next item, pKi requested
For CCCCN(Cc1ccc(-c2ccccc2-c2nnn[nH]2)cc1)c1nc(C)ccc1C(=O)O the compound record lists pKi as 6.91
